Tested on: KBVIN
MEASUREMENT NOTES: Inhibition of Pgp-mediated multidrug resistance in human KBVIN cells assessed as chemosensitization activity measured by increase in vincristine-induced cytotoxicity at 1 ug/mL by SRB assay relative to untreated control
Assay type: cell-based
PROPERTY MEASURED: fold change (FC)

{"MOLECULE": "COc1ccc(CCN(C)CCCC(C#N)(c2ccc(OC)c(OC)c2)C(C)C)cc1OC (configuration not stated) [VERAPAMIL]", "PROPERTY MEASURED": "fold change (FC)", "RELATION OPERATOR": "=", "ENDPOINT RESULT": 141}
{"MOLECULE": "CCc1cc(=O)c2ccc3c(c2o1)[C@@H](OC(=O)c1cccc(C(F)(F)F)c1)[C@@H](OC(=O)c1cccc(C(F)(F)F)c1)C(C)(C)O3", "PROPERTY MEASURED": "fold change (FC)", "RELATION OPERATOR": "<", "ENDPOINT RESULT": 12.2}
{"MOLECULE": "CCc1cc(=O)c2ccc3c(c2o1)[C@@H](OC(=O)c1cccc(C#N)c1)[C@@H](OC(=O)c1cccc(C#N)c1)C(C)(C)O3", "PROPERTY MEASURED": "fold change (FC)", "RELATION OPERATOR": "=", "ENDPOINT RESULT": 160}
{"MOLECULE": "CCc1cc(=O)c2ccc3c(c2o1)[C@@H](OC(=O)Cc1ccccc1)[C@@H](OC(=O)Cc1ccccc1)C(C)(C)O3", "PROPERTY MEASURED": "fold change (FC)", "RELATION OPERATOR": "=", "ENDPOINT RESULT": 81.3}
{"MOLECULE": "CCc1cc(=O)c2ccc3c(c2o1)[C@@H](OC(=O)/C=C/c1ccc(OC)cc1)[C@@H](OC(=O)/C=C/c1ccc(OC)cc1)C(C)(C)O3", "PROPERTY MEASURED": "fold change (FC)", "RELATION OPERATOR": "=", "ENDPOINT RESULT": 287}
{"MOLECULE": "CCc1cc(=O)c2ccc3c(c2o1)[C@@H](OC(=O)/C=C/c1ccccc1)[C@@H](OC(=O)/C=C/c1ccccc1)C(C)(C)O3", "PROPERTY MEASURED": "fold change (FC)", "RELATION OPERATOR": "=", "ENDPOINT RESULT": 222}
{"MOLECULE": "CCc1cc(=O)c2ccc3c(c2o1)[C@@H](OC(=O)N(CC)CC)[C@@H](OC(=O)N(CC)CC)C(C)(C)O3", "PROPERTY MEASURED": "fold change (FC)", "RELATION OPERATOR": "=", "ENDPOINT RESULT": 116}

Values from ChEMBL document CHEMBL1629447
